EC50 values, listed per item
TEST TARGET: μOR (Homo sapiens, UniProt P35372)
Construct: host or cells: CHO-K1
Sequence (P35372 whole entry): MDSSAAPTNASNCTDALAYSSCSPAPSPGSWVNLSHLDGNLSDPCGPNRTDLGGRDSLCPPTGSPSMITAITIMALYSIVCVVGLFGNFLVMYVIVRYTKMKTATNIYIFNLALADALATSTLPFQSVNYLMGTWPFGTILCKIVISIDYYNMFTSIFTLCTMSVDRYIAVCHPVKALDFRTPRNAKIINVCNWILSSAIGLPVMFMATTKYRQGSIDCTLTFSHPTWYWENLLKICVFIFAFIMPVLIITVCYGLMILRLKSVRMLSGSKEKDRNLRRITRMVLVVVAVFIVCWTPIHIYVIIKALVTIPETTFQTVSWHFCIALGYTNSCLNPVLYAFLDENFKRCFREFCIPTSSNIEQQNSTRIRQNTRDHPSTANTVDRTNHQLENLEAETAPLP
TEST DETAILS: cell-based
Format: cell-based

CC=C1CN2CCC34C(=C(C(=O)OC)C1CC23)Nc1ccc(C#N)cc14 (stereo not drawn) :: > 10 µM
C/C=C1/CN2CC[C@]34C(=C(C(=O)OC)[C@H]1C[C@H]23)Nc1ccc(-c2ccoc2)cc14 :: 0.72 to 0.84 µM
C/C=C1/CN2CC[C@]34c5ccccc5NC3C(C(=O)OC)[C@H]1C[C@H]24 (stereo partly drawn) [Compound 14, 2,16-dihydroakuammicine] :: > 10 µM
CC=C1C[N+]2(CC3CC3)CCC34C(=C(C(=O)OC)C1CC32)Nc1ccccc14 (stereo not drawn) :: > 10 µM
CC=C1CN2CCC34c5cc(I)ccc5NC3C(C(=O)OC)C1CC24 (stereo not drawn) [Compound 22, 10-Iodo-2,16-dihydroakuammicine] :: > 10 µM

Would you mind telling me what EC50 value was observed for C=CC[N+]12CCC34C(=C(C(=O)OC)C(CC31)C(=CC)C2)Nc1ccc(Br)cc14 (stereo not drawn) ?
> 10 µM
